test: inducers of Cryptococcus neoformans cell lysis, dose response, AK release luminescence, cherry-picks (AID 687000);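 further: luminescent detection of adenylate kinase leaking from lysed yeast; 0% = median neutral control signal and 100% = double that signal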; details: C. neoformans lysis, adenylate kinase release luminescence, 4 h, 100% = twice the neutral-control signal; series mostly up to 15 µM
Results with a measured potency or affinity are listed apart. The source made the active and inactive calls.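 How the source made its calls: active means fitted dose curve reaches 40% lysis signal rise at or below the highest valid concentration tested for that sample; inconclusive means flat fit between 30% and 70%, or poor curve fit; inactive means signal falls, stays flat within 30%, or no crossing.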
Assay Metric: outcome

Examples from the recorded data:
| Compound | Assay Metric | Test Value |
| --- | --- | --- |
| C[C@@H]1CN([C@H](C)CO)C(=O)c2cc(NC(=O)Nc3cccc4ccccc34)ccc2O[C@H]1CN(C)C(=O)Nc1ccc(C(F)(F)F)cc1 | outcome | inactive |
| Cc1ccc(NC(=O)C2(C)CCN2C(=O)CCC2CCCC2)cc1C (stereo not drawn) | outcome | inactive |
| COc1cc(C(=O)NC(=S)Nc2ccccc2N2CCOCC2)cc(OC)c1OC | outcome | inactive |
| CC(C)COc1ccc(CNC(=S)NCc2ccccc2)cc1 | outcome | inactive |
| CC(=O)N1[C@H](CO)[C@H](c2ccc(-c3ccccc3)cc2)[C@@H]1CNC(=O)C1CC1 | outcome | inactive |
| COc1ccc(CN(C)C[C@@H]2Oc3ccc(NC(=O)C4CC4)cc3C(=O)N([C@@H](C)CO)C[C@H]2C)cc1 | outcome | inactive |
| C[C@@H]1CN([C@@H](C)CO)C(=O)c2cccc(NS(=O)(=O)c3ccc(F)cc3)c2O[C@H]1CN(C)S(=O)(=O)c1ccc(Cl)cc1 | outcome | inactive |
| COc1ccc(C2CC(c3cccs3)=NN2C(=O)c2ccc(Br)o2)cc1 (stereo not drawn) | outcome | inactive |
| C[C@H]1CN([C@@H](C)CO)C(=O)Cc2cc(NC(=O)Nc3cccc4ccccc34)ccc2O[C@H]1CN(C)S(=O)(=O)c1cccs1 | outcome | inactive |
| COCC#Cc1cnc2c(c1)C(=O)N([C@H](C)CO)C[C@@H](C)[C@@H](CN(C)C(=O)Nc1ccc(OC)cc1)O2 | outcome | inactive |

Recorded outcome for C[C@H]1CN([C@@H](C)CO)S(=O)(=O)c2ccc(C#Cc3cccc(F)c3)cc2O[C@@H]1CN(C)C(=O)NC1CCCCC1 , please?
inactive

Recorded outcome for CCCNC(=O)N1[C@H](CO)[C@@H](c2ccc(C3=CCCC3)cc2)[C@@H]1CN(C)C(C)=O , please?
inactive

Recorded outcome for O=C(NC(=S)Nc1ccccc1)c1cc([N+](=O)[O-])ccc1N1CCOCC1 , please?
inactive

###

target: Streptavidin (Streptomyces avidinii) (UniProt P22629); test: streptavidin binders on small-molecule microarray, primary screen, artefact control for SMM compound annotation, biophysical, 635/667 nm fluorescence (AID 1147); conditions: streptavidin binding, higher = more signal;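 further: signal reflects streptavidin binding to arrayed compounds as a control protein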
Sequence (P22629 whole entry, looked up): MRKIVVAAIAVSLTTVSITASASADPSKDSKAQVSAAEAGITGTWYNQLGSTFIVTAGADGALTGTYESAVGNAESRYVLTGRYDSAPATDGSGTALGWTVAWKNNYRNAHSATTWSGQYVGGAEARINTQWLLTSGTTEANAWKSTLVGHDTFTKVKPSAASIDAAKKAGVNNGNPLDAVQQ
Parameter composite z-score: see the listing below.
Answer with a bare number; do not write a unit.

Requested read-out composite z-score, target or system Streptavidin (Streptomyces avidinii) (UniProt P22629), entry CCOC(=O)C[C@H]1[C@H](OC(=O)Cc2ccc3c(c2)OCO3)[C@@H](NC(=O)c2ccc3ccccc3c2)c2cc(OCCCO)ccc2N1C(=O)c1ccc2ccccc2n1
0.398

Requested read-out composite z-score, target or system Streptavidin (Streptomyces avidinii) (UniProt P22629), entry C=C(COC)C(=O)CC[C@@H](OC(=O)c1ccccc1-c1ccccc1C(=O)O)c1cccc(OCCO)c1
-0.52

Requested read-out composite z-score, target or system Streptavidin (Streptomyces avidinii) (UniProt P22629), entry COC(=O)c1c2oc(c1C(=O)OC)C(=O)N[C@@H](C(C)C)Cn1nncc1C1(CCCCC1)NC(=O)N[C@H](CO)CC2
0.235

Requested read-out composite z-score, target or system Streptavidin (Streptomyces avidinii) (UniProt P22629), entry [N-]=[N+]=NCc1ccccc1C[C@]1(C(=O)NCc2ccccc2)N=C(c2ccc(OCCCO)cc2)O[C@H]1c1ccccc1
0.532

Requested read-out composite z-score, target or system Streptavidin (Streptomyces avidinii) (UniProt P22629), entry C=CCC(OC(C)=O)[C@@H]1[C@@H](N(Cc2ccc(-c3ccccc3)cc2)C(=O)c2ccc(-c3ccccc3)cc2)c2cc(OCCCO)ccc2N1C(=O)c1ccc(-c2ccccc2)cc1 (some centres undefined)
0.222

Requested read-out composite z-score, target or system Streptavidin (Streptomyces avidinii) (UniProt P22629), entry CC(=O)OC(C/C=C\B1OC(C)(C)C(C)(C)O1)c1ccccc1 (centres undefined)
-0.748
